Record form. Attribute: GI50. Fill in for each entry.
System: NCI-H226
protocol: NCI tumour cell line growth inhibition, 48 h
The source made the active and inactive calls. No stated cut-off is given here; in the data, active = GI50 up to about 1.1 µM and inactive = higher. Where a SMILES comes first, the peptide text is derived from it. [ ]: non-standard residue; d: D form. The star is where a group is joined. NMeF = CN[CH](Cc1ccccc1)C(=O)O; NMeV = CN[CH](C(=O)O)C(C)C; Boc = CC(C)(C)OC(=O)*; OBn = c1ccc(CO*)cc1

// query What measured GI50 is associated with CCOC(=O)c1c(N2CCOCC2)[nH]c(=O)c(C(c2ccc(OC)cc2)c2c(O)c(C(=O)OCC)c(N3CCOCC3)[nH]c2=O)c1O on NCI-H226?
// result > 100 µM (inactive)

// query What measured GI50 is associated with O=C(/C=C(\O)C(=O)O)/C=C(\O)c1ccc(Cl)cc1 on NCI-H226?
// result > 100 µM (inactive)

// query What measured GI50 is associated with Cc1cn2c(=O)c3ncn(C4OC(CO)C(O)C4O)c3n(C)c2n1 (centres undefined) on NCI-H226?
// result > 100 µM (inactive)

// query What measured GI50 is associated with Cc1cnc2c(C)ccc([N+](=O)[O-])c2c1NCCCN(C)C on NCI-H226?
// result > 100 µM (inactive)

// query What measured GI50 is associated with N#Cc1sc2c(c1OC(=O)c1ccco1)c(=O)n(-c1ccccc1)c(=S)n2-c1ccccc1 on NCI-H226?
// result 34.3 µM (inactive)

// query What measured GI50 is associated with Cc1cc2c3ccccc3[nH]c2c2ccnc(C)c12 on NCI-H226?
// result 13.4 µM (inactive)

// query What measured GI50 is associated with COc1ccc2nc3c([N+](=O)[O-])ccc4c3c(c2c1)N(CCCN(C)C)C(=S)N4CCCN(C)C on NCI-H226?
// result 7.48 µM (inactive)

// query What measured GI50 is associated with Cc1ccc(S(=O)(=O)N2CCC(=O)c3cc(Br)ccc32)cc1 on NCI-H226?
// result 37.7 µM (inactive)

// query What measured GI50 is associated with CCCCCCCCOCC(COC(=O)CCCCCCC)OC(=O)CCCCCCC (centres undefined) on NCI-H226?
// result > 100 µM (inactive)

// query What measured GI50 is associated with O=C(NCCCNC(=O)c1ccc2c(O)c(O)ccc2c1)c1ccc2c(O)c(O)ccc2c1 on NCI-H226?
// result 63 µM (inactive)

// query What measured GI50 is associated with N#CCc1nc(-c2cc3ccc(O)cc3oc2=O)cs1 on NCI-H226?
// result 53.6 µM (inactive)

// query What measured GI50 is associated with Cc1ccc(S(=O)(=O)c2ccsc2NC(=O)C(F)(F)F)cc1 on NCI-H226?
// result 39.7 µM (inactive)

// query What measured GI50 is associated with O=C(CCCn1cnc([N+](=O)[O-])n1)NCCCn1ccnc1[N+](=O)[O-] on NCI-H226?
// result > 100 µM (inactive)

// query What measured GI50 is associated with N/C(=N\c1ccc(Cl)cc1)c1ccccc1N on NCI-H226?
// result > 100 µM (inactive)

// query What measured GI50 is associated with CC(=O)OC1CC2C(C)(C)OC(=O)CC(OC(C)=O)[C@]2(C)C2CCC3(C)C(=CCC3[C@H]3COC(=O)C3)[C@]12C (some centres undefined) on NCI-H226?
// result > 100 µM (inactive)

// query What measured GI50 is associated with CC(=O)C1=C(C)N(c2ccccc2)C2(O)C=CC(O)=C3C(=O)c4ccccc4C(=O)C312 (centres undefined) on NCI-H226?
// result 25.5 µM (inactive)

// query What measured GI50 is associated with CCOc1ccc(/N=C\c2ccc3cc(C)ccc3n2)cc1 on NCI-H226?
// result > 100 µM (inactive)

// query What measured GI50 is associated with CC(C)C(NC(=O)OC(C)(C)C)C(=O)N(C)C(Cc1ccccc1)C(=O)N(C)C(C(=O)N(C)C(C(=O)OCc1ccccc1)C(C)C)C(C)C (centres undefined) (Boc-V[NMeF][NMeV][NMeV]-OBn; configuration not given here) on NCI-H226?
// result > 100 µM (inactive)

// query What measured GI50 is associated with COC(=O)c1cc(C)ccc1/C=C1\Cc2cccc(C)c2C1=O on NCI-H226?
// result 58.3 µM (inactive)

// query What measured GI50 is associated with C/C(=C\c1ccccc1)C(=O)NCc1ccc(C(=O)NCCC(C)C)cc1 on NCI-H226?
// result 40.5 µM (inactive)

// query What measured GI50 is associated with O=C(CCc1ccccc1)ON1C(=S)NC(c2ccccc2)(c2ccccc2)C1=S on NCI-H226?
// result 22 µM (inactive)

// query What measured GI50 is associated with COc1ccc(-c2cnoc2-c2ccc(OC)c(OC)c2)cc1OC on NCI-H226?
// result 1.71 µM (inactive)

// query What measured GI50 is associated with COc1cc2c(cc1OCCCCOc1cc3c(cc1OC)C(=O)N1CCC[C@H]1C(=O)N3)N=C[C@@H]1CCCN1C2=O on NCI-H226?
// result 13.5 µM (inactive)

// query What measured GI50 is associated with CC[C@H](CC[C@@H](C)[C@H]1CC[C@H]2[C@@H]3CC=C4C[C@@H](O)CC[C@]4(C)[C@H]3CC[C@]12C)C(C)C [BETA-SITOSTEROL] on NCI-H226?
// result > 100 µM (inactive)

// query What measured GI50 is associated with Cc1ccc(Nc2cc(=O)[nH]c(=S)[nH]2)cc1 on NCI-H226?
// result > 100 µM (inactive)

// query What measured GI50 is associated with Clc1nc(Cl)c(Cl)c(Cl)n1 on NCI-H226?
// result 20.7 µM (inactive)

// query What measured GI50 is associated with C=C1CC[C@@H]2C(C)(C)CCC[C@@]2(C)[C@@H]1Cc1cc(O)ccc1O on NCI-H226?
// result 2.55 µM (inactive)

// query What measured GI50 is associated with N#Cc1nc(COCc2ccccc2)oc1N on NCI-H226?
// result > 100 µM (inactive)

// query What measured GI50 is associated with CC(=O)OC[C@@H](OC(C)=O)[C@@H](OC(C)=O)[C@H]1OC[C@@H]2C[C@H]([C@H]1OC(C)=O)N(Cc1ccccc1)O2 on NCI-H226?
// result > 100 µM (inactive)

// query What measured GI50 is associated with COc1nc(OC)nc(-c2cccc(F)c2)n1 on NCI-H226?
// result 13.4 µM (inactive)

// query What measured GI50 is associated with CC1(C)S[C@H](CN)N[C@H]1C(=O)OC(c1ccccc1)c1ccccc1 on NCI-H226?
// result > 100 µM (inactive)

// query What measured GI50 is associated with N#CCCC(CC#N)N1CCN(C(CC#N)CCC#N)CC1 (centres undefined) on NCI-H226?
// result > 100 µM (inactive)

// query What measured GI50 is associated with Cc1ccc(/N=N/c2c(-c3ccccc3)nn(C(=O)CC(=O)Nc3ccc(Cl)cc3)c2-c2ccccc2)cc1 on NCI-H226?
// result 36.6 µM (inactive)

// query What measured GI50 is associated with O=C1C[C@H](c2ccccc2)C2(C(=O)c3ccccc3C2=O)[C@@H](c2ccccc2)C1 on NCI-H226?
// result 24.9 µM (inactive)

// query What measured GI50 is associated with CC(=O)c1cccc(NC(=O)C(=O)Nn2c(N)nnc2N)c1 on NCI-H226?
// result > 100 µM (inactive)

// query What measured GI50 is associated with COc1nc(N(C)C)nc2c1[n+](C)cn2C [HETEROMINE A] on NCI-H226?
// result > 100 µM (inactive)

// query What measured GI50 is associated with CCc1ncnc2cc(OCC3CO3)c(OC)cc12 (centres undefined) on NCI-H226?
// result 6.49 µM (inactive)

// query What measured GI50 is associated with O=C(/C=C/c1ccc(/C=C/C(=O)c2ccc(O)cc2)cc1)c1ccc(O)cc1 on NCI-H226?
// result > 100 µM (inactive)

// query What measured GI50 is associated with CC(C)(C)[Si](C)(C)OCC1OC(n2cnc3c(=O)[nH]cnc32)CC1O (centres undefined) on NCI-H226?
// result > 100 µM (inactive)
